- Method Summary: Plasma concentration in mouse bearing mouse NIH-3T3 cells integrated with MMTV reporter gene at 1 mg/kg, po after 1 hr
- Type: ADME, organism-based, NIH3T3
- Parameters: dose 1 mg/kg, route oral
Listing of entries alongside the reported concentration at 1 h.
Answer with the number, then the unit.

Quickly give me recorded concentration at 1 h for C[C@@H]1C[C@H]2[C@@H]3CCC4=CC(=O)C=C[C@]4(C)[C@@]3(F)[C@@H](O)C[C@]2(C)[C@@]1(O)C(=O)CO [DEXAMETHASONE] 1800 nM

Quickly give me recorded concentration at 1 h for O=S(=O)(Cc1ccccc1)Nc1ccc(-c2ccc3c(cnn3-c3ccc(F)cc3)c2)c(C(F)(F)F)c1 290 nM

----------
Listing of entries alongside the reported pIC50.
- Method Summary: Antiinflammatory activity in human primary synovial fibroblasts assessed as inhibition of IL1-induced IL6 release after 18 hrs by MSD technology
- Assay type: functional
For clarity, pIC50 is expressed as the negative log10 of concentration in mol/L.

| Smiles Representation | Measurement Name | Test Value |
| --- | --- | --- |
| C[C@@H]1C[C@H]2[C@@H]3CCC4=CC(=O)C=C[C@]4(C)[C@@]3(F)[C@@H](O)C[C@]2(C)[C@@]1(O)C(=O)CO | pIC50 | 9.20 |

Please examine the following record next.
Quickly give me recorded pIC50 for O=S(=O)(Cc1ccccc1)Nc1ccc(-c2ccc3c(cnn3-c3ccc(F)cc3)c2)c(C(F)(F)F)c1 8.50

----------
Listing of entries alongside the reported concentration at 1 h.
- Method Summary: Plasma concentration in mouse bearing mouse NIH-3T3 cells integrated with MMTV reporter gene at 0.1 mg/kg, po after 1 hr
- Format: ADME, organism-based, NIH3T3
- Parameters: dose 0.1 mg/kg, route oral
Reply numerically in nM, unit not repeated.

| Smiles Representation | Units Text | concentration at 1 h |
| --- | --- | --- |
| O=S(=O)(Cc1ccccc1)Nc1ccc(-c2ccc3c(cnn3-c3ccc(F)cc3)c2)c(C(F)(F)F)c1 | nM | 25 |

Quickly give me recorded concentration at 1 h for C[C@@H]1C[C@H]2[C@@H]3CCC4=CC(=O)C=C[C@]4(C)[C@@]3(F)[C@@H](O)C[C@]2(C)[C@@]1(O)C(=O)CO 236

----------
- Tgt: Glucocorticoid receptor (Homo sapiens, UniProt P04150)
- Method Summary: Activity at GR in human A549 cells by NF-kappaB transrepression assay
- Format: cell-based
Measurement Name: IC50

Field: example entries. Status: answers known.
| Smiles Representation | IC50 |
| --- | --- |
| CCOc1cccc(-c2ccc3c(cnn3-c3ccc(F)cc3)c2)c1 | > 10 µM |
| O=S(=O)(NCCO)c1ccc(-c2ccc3c(cnn3-c3ccc(F)cc3)c2)c(C(F)(F)F)c1 | > 10 µM |
| O=S(=O)(Nc1ccccc1)c1ccc(-c2ccc3c(cnn3-c3ccc(F)cc3)c2)c(C(F)(F)F)c1 | > 10 µM |
| CCOc1ccccc1-c1ccc2c(cnn2-c2ccc(F)cc2)c1 | > 10 µM |
| CCN(c1ccccc1)S(=O)(=O)c1ccc(-c2ccc3c(cnn3-c3ccc(F)cc3)c2)c(C(F)(F)F)c1 | 0.126 µM |

Quickly give me recorded IC50 for O=S(=O)(Cc1ccccc1)Nc1ccc(-c2ccc3c(cnn3-c3ccc(F)cc3)c2)c(C(F)(F)F)c1 0.01 µM

Quickly give me recorded IC50 for O=S(=O)(Nc1ccc(-c2ccc3c(cnn3-c3ccc(F)cc3)c2)c(C(F)(F)F)c1)c1cccc(C(F)(F)F)c1 0.0631 µM

Quickly give me recorded IC50 for CCCCN(c1ccccc1)S(=O)(=O)c1ccc(-c2ccc3c(cnn3-c3ccc(F)cc3)c2)c(C(F)(F)F)c1 > 10 µM

Quickly give me recorded IC50 for CCS(=O)(=O)Nc1ccc(-c2ccc3c(cnn3-c3ccc(F)cc3)c2)c(C(F)(F)F)c1 > 10 µM

----------
- Tgt: Glucocorticoid receptor (Homo sapiens, UniProt P04150)
- Method Summary: Displacement of fluorescent-labeled Dexamethasone from GR by fluorescent polarization assay
Listing of entries alongside the reported IC50.
Reply numerically in µM, unit not repeated.

| Smiles Representation | IC50, µM |
| --- | --- |
| O=S(=O)(NCCO)c1ccc(-c2ccc3c(cnn3-c3ccc(F)cc3)c2)c(C(F)(F)F)c1 | 0.0158 |
| Oc1cccc(-c2ccc3c(cnn3-c3ccc(F)cc3)c2)c1 | 0.794 |
| O=S(=O)(Cc1ccccc1)Nc1ccc(-c2ccc3c(cnn3-c3ccc(F)cc3)c2)c(C(F)(F)F)c1 | 0.01 |
| CCS(=O)(=O)Nc1ccc(-c2ccc3c(cnn3-c3ccc(F)cc3)c2)c(C(F)(F)F)c1 | 0.01 |

Please examine the following record next.
Quickly give me recorded IC50 for Fc1ccc(-n2ncc3cc(-c4ccccc4C(F)(F)F)ccc32)cc1 0.251

----------
- Tgt: Glucocorticoid receptor (Homo sapiens, UniProt P04150)
- Sequence (P04150 whole entry): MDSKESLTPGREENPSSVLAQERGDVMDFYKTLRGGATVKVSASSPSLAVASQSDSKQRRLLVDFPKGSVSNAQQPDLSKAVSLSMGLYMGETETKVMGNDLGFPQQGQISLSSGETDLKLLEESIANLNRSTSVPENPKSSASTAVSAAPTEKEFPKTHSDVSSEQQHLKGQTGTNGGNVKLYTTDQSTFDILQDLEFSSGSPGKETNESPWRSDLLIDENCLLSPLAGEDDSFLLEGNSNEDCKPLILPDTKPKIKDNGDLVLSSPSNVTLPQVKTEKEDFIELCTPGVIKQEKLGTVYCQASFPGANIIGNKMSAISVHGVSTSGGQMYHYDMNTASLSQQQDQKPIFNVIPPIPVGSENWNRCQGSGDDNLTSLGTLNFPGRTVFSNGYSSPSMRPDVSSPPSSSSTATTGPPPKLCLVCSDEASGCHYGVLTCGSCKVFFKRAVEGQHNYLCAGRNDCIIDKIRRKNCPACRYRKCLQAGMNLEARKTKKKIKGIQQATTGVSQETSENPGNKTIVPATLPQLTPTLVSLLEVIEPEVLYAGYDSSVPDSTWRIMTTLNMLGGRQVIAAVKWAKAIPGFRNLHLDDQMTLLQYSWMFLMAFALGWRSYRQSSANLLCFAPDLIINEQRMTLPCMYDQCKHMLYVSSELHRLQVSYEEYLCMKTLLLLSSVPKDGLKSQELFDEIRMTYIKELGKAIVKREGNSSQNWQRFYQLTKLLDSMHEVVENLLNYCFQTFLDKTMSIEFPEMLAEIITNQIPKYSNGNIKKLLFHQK
- Method Summary: Displacement of fluorescent-labeled Dexamethasone from GR by fluorescent polarization assay
Measurement Name: pIC50
For clarity, pIC50 is expressed as the negative log10 of concentration in mol/L.

Field: example entries. Status: answers known.
| Smiles Representation | Tgt | Test Value |
| --- | --- | --- |
| CC(C)(C)c1ccc(S(=O)(=O)Nc2ccc(-c3ccc4c(cnn4-c4ccc(F)cc4)c3)c(C(F)(F)F)c2)cc1 | Glucocorticoid receptor (Homo sapiens, UniProt P04150) | 7.30 |
| O=S(=O)(Nc1ccc(-c2ccc3c(cnn3-c3ccc(F)cc3)c2)c(C(F)(F)F)c1)c1cccc(C(F)(F)F)c1 | Glucocorticoid receptor (Homo sapiens, UniProt P04150) | 7.30 |
| CC(C)c1cc(C(C)C)c(S(=O)(=O)Nc2ccc(-c3ccc4c(cnn4-c4ccc(F)cc4)c3)c(C(F)(F)F)c2)c(C(C)C)c1 | Glucocorticoid receptor (Homo sapiens, UniProt P04150) | 6.60 |
| Cc1cccc(-c2ccc3c(cnn3-c3ccc(F)cc3)c2)c1 | Glucocorticoid receptor (Homo sapiens, UniProt P04150) | 5.50 |
| CCCS(=O)(=O)Nc1ccc(-c2ccc3c(cnn3-c3ccc(F)cc3)c2)c(C(F)(F)F)c1 | Glucocorticoid receptor (Homo sapiens, UniProt P04150) | 7.80 |

Please examine the following record next.
Quickly give me recorded pIC50 for O=S(=O)(Nc1ccccc1)c1ccc(-c2ccc3c(cnn3-c3ccc(F)cc3)c2)c(C(F)(F)F)c1 7.60

----------
- Method Summary: Plasma concentration in mouse bearing mouse NIH-3T3 cells integrated with MMTV reporter gene at 100 mg/kg, po after 1 hr
- Format: ADME, organism-based, NIH3T3
- Parameters: dose 100 mg/kg, route oral
Measurement Name: concentration at 1 h (µM)
Reply numerically in µM, unit not repeated.

Quickly give me recorded concentration at 1 h for O=S(=O)(Cc1ccccc1)Nc1ccc(-c2ccc3c(cnn3-c3ccc(F)cc3)c2)c(C(F)(F)F)c1 12.1

----------
- Tgt: Glucocorticoid receptor (Homo sapiens)
- Method Summary: Displacement of fluorescent-labeled Dexamethasone from GR by fluorescent polarization assay
Listing of entries alongside the reported IC50.

Field: example entries. Status: answers known.
| Smiles Representation | IC50 |
| --- | --- |
| CCOc1ccccc1-c1ccc2c(cnn2-c2ccc(F)cc2)c1 | 501 nM |
| CC(C)CNS(=O)(=O)c1ccc(-c2ccc3c(cnn3-c3ccc(F)cc3)c2)c(C(F)(F)F)c1 | 39.8 nM |
| CC(C)N(c1ccccc1)S(=O)(=O)c1ccc(-c2ccc3c(cnn3-c3ccc(F)cc3)c2)c(C(F)(F)F)c1 | 15.8 nM |
| Fc1ccc(-n2ncc3cc(-c4ccc(C(F)(F)F)cc4)ccc32)cc1 | > 10000 nM |
| CCNS(=O)(=O)c1ccc(-c2ccc3c(cnn3-c3ccc(F)cc3)c2)c(C(F)(F)F)c1 | 20 nM |

Quickly give me recorded IC50 for Fc1ccc(-n2ncc3cc(-c4cccc(C(F)(F)F)c4)ccc32)cc1 3160 nM

Quickly give me recorded IC50 for CCN(c1ccccc1)S(=O)(=O)c1ccc(-c2ccc3c(cnn3-c3ccc(F)cc3)c2)c(C(F)(F)F)c1 15.8 nM

Quickly give me recorded IC50 for N#Cc1ccccc1-c1ccc2c(cnn2-c2ccc(F)cc2)c1 398 nM

Quickly give me recorded IC50 for O=S(=O)(Nc1ccc(-c2ccc3c(cnn3-c3ccc(F)cc3)c2)c(C(F)(F)F)c1)c1ccsc1 12.6 nM
